system: porcine kidney-derived LLC-PK1 cells; assay: Protective effect against oxidized LDL-induced injury of porcine kidney-derived LLC-PK1 cells (1); type: cell-based; conditions: Sus scrofa, LLC-PK1, 6 h, 1 μM; compound added immediately before adding oxidized LDL; mean ± standard deviation; read-out: Cytoprotection rate (%)
Quick rule: inhibition at 1 µM of at least 70% means Satisfied, below that means Not satisfied.

# molecule, label.class
records = [
    ("CC(C)(C)c1cc2c(c(C(C)(C)C)c1O)CC1(CCCCCC1)O2", "Satisfied"),
    ("CC(C)(C)c1cc2c(c(C(C)(C)C)c1O)CC1(CCCC1)O2", "Satisfied"),
    ("CC(C)(C)c1cc2c(c(C(C)(C)C)c1O)CC(Cc1ccccc1)(Cc1ccccc1)O2", "Satisfied"),
    ("CC(C)(Sc1cc(C(C)(C)C)c(O)c(C(C)(C)C)c1)Sc1cc(C(C)(C)C)c(O)c(C(C)(C)C)c1 [Probucol, probucol, reference compound]", "Not satisfied"),
    ("CC1(C)Cc2c(cc(C(C)(C)C)c(O)c2C(C)(C)C)O1", "Satisfied"),
    ("CC1Cc2c(cc(C(C)(C)C)c(O)c2C(C)(C)C)S1 (centres unmarked)", "Not satisfied"),
    ("CC(C)(C)c1cc2c(c(C(C)(C)C)c1O)CC(C(C)(C)C)O2 (centres unmarked)", "Satisfied"),
    ("CCCOc1cc(C(C)(C)C)c(O)c(C(C)(C)C)c1C", "Not satisfied"),
]

---

Some molecules, each annotated with its measured inhibition at 10 µM.
tested on: murine mesangial derived MES13 cells; assay: Protective effect against oxidized LDL-induced injury of murine mesangial cells (in vitro); format: cell-based; settings: Mus musculus, MES13, 10 h, 10 μM; compound added immediately before adding oxidized LDL; mean ± standard deviation; read-out: Cytoprotection rate (%)

# molecule, target.or.test.system, units.symbol, inhibition at 10 µM
data = [
    ("CCCCCC1(CCCCC)Cc2c(cc(C(C)(C)C)c(O)c2C(C)(C)C)O1 [Example 36]", "murine mesangial derived MES13 cells", "%", 40),
    ("CC(C)(C)c1cc2c(c(C(C)(C)C)c1O)CC1(CCCCCCC1)O2 [Example 21]", "murine mesangial derived MES13 cells", "%", 11.9),
    ("CC1(CNC(N)=S)Cc2c(cc(C(C)(C)C)c(O)c2C(C)(C)C)O1 (stereo not shown) [Example 80]", "murine mesangial derived MES13 cells", "%", 56.2),
    ("CCOC(=O)/C=C/C1(C)Cc2c(cc(C(C)(C)C)c(O)c2C(C)(C)C)O1 (stereo not shown) [Example 75]", "murine mesangial derived MES13 cells", "%", 79),
]

---

tested on: murine mesangial derived MES13 cells; assay: Protective effect against oxidized LDL-induced injury of murine mesangial cells (in vitro); type: cell-based; conditions: Mus musculus, MES13, 10 h, 10 μM; compound added immediately before adding oxidized LDL; mean ± standard deviation; read-out: Cytoprotection rate (%)
Outcome: TRUE for inhibition at 10 µM of at least 70%; FALSE for anything lower.

# molecule, label.class
measured = [
    ("CC1(C(=O)N2CCCC2)Cc2c(cc(C(C)(C)C)c(O)c2C(C)(C)C)O1 (centres unmarked) [Example 74]", "TRUE"),
    ("CC1(CCCCCC(=O)O)Cc2c(cc(C(C)(C)C)c(O)c2C(C)(C)C)O1 (centres unmarked) [Example 78]", "FALSE"),
    ("CC1(CNC(=N)NN)Cc2c(cc(C(C)(C)C)c(O)c2C(C)(C)C)O1 (centres unmarked) [Example 81]", "TRUE"),
    ("CC1(CNNC(=N)N)Cc2c(cc(C(C)(C)C)c(O)c2C(C)(C)C)O1 (centres unmarked) [Example 87]", "TRUE"),
    ("CCOC(=O)CCC1(C)Cc2c(cc(C(C)(C)C)c(O)c2C(C)(C)C)O1 (centres unmarked) [Example 76]", "FALSE"),
    ("CC(C)(C)c1cc2c(c(C(C)(C)C)c1O)CC1(CCOCC1)S2 [Example 69]", "TRUE"),
    ("CC1(C=CCCCC(=O)O)Cc2c(cc(C(C)(C)C)c(O)c2C(C)(C)C)O1 (centres unmarked) [Example 77]", "FALSE"),
    ("CC1(COc2ccc(CNNC(=N)N)cc2)Cc2c(cc(C(C)(C)C)c(O)c2C(C)(C)C)O1 (centres unmarked) [Example 86]", "TRUE"),
]
